- Method Summary: qHTS assay to identify small molecule agonists of the TGF-beta/Smad signaling pathway - cell viability counter screen (AID 1346829); note: nearly all actives have a fitted effect of over 45% in size
- Experimental Parameters: SBE-bla HEK293T viability, CellTiter-Glo luminescence, 5 h; series mostly up to 76.8 µM
- Excerpt: National Center for Advancing Translational Sciences [NCATS] NIH Chemical Genomics Center [NCGC] U.S. Environmental Protection Agency [EPA] National Institutes of Environmental Health Sciences [NIEHS] National Toxicology Program [NTP] U.S. Food and Drug Administration [FDA] Transforming growth factor beta (TGF-beta) superfamily consists of a large number of structurally related dimeric proteins that act as hormones or local mediators in regulating a wide range of biological functions. […]
Records with an inconclusive call do not appear. The source made the active and inactive calls. Calls come from the whole dose curve; as a rule, active = well fitted cell-killing curve with a large enough effect in the repeat runs; inconclusive = weak or mixed curves, or effect the other way; inactive = flat fitted curve, though single readings scatter.
Classes used: active, inactive

| Compound | Class Label |
| --- | --- |
| N#CCCC(Br)(C#N)CBr (stereo not drawn) | inactive |
| ClC(Cl)=C(c1ccc(Cl)cc1)c1ccc(Cl)cc1 | inactive |
| CCCCCCCCCCCCCN1CC(C)OC(C)C1 (stereo not drawn) | inactive |
| CCCN(CCC)CCc1c[nH]c2ccccc12 | inactive |
| CC1(c2ccc(Oc3ccccc3)cc2)OC(=O)N(Nc2ccccc2)C1=O (stereo not drawn) | inactive |
| BrC(Br)Br | inactive |
| c1ccc2cc3c(cc2c1)-c1cccc2cccc-3c12 | inactive |
| O=[N+]([O-])c1ccc(Oc2ccc(C(F)(F)F)cc2[N+](=O)[O-])cc1 | inactive |
| C=CC(=O)OCC(COC(=O)C=C)(COC(=O)C=C)COC(=O)C=C | active |
| CC1(C)CN=C(NN=C(/C=C/c2ccc(C(F)(F)F)cc2)/C=C/c2ccc(C(F)(F)F)cc2)NC1 | active |
| [CH3][Hg][Cl] | inactive |
| CC(=[OH+])/C=C(/C)[O-].CC(=[OH+])/C=C(\C)[O-].CC(=[OH+])/C=C(\C)[O-].[Al] | inactive |
| Nc1ccc(Cl)cc1C(=O)c1ccccc1 | inactive |
| CC(=O)C(Cl)(Cl)Cl | inactive |
| CN(C)C(=S)S | inactive |
| N#CSCSC#N | inactive |
| N#C/C=C/C#N | inactive |
| CCCCCCCCCCBr | inactive |
| CCOC(=O)C1(c2ccccc2)CCN(CCC(C#N)(c2ccccc2)c2ccccc2)CC1 | inactive |
| CS(=O)(=O)c1ccc(C(=O)C2C(=O)CCCC2=O)c([N+](=O)[O-])c1 | inactive |
| C=COCCCl | inactive |
| O=C/C(Cl)=C(/Cl)C(=O)O | inactive |
| Cc1ccc(CCl)cc1 | inactive |

---

- Tested Target: Acetylcholinesterase (Homo sapiens) (UniProt P22303)
- Sequence (P22303 whole entry, looked up): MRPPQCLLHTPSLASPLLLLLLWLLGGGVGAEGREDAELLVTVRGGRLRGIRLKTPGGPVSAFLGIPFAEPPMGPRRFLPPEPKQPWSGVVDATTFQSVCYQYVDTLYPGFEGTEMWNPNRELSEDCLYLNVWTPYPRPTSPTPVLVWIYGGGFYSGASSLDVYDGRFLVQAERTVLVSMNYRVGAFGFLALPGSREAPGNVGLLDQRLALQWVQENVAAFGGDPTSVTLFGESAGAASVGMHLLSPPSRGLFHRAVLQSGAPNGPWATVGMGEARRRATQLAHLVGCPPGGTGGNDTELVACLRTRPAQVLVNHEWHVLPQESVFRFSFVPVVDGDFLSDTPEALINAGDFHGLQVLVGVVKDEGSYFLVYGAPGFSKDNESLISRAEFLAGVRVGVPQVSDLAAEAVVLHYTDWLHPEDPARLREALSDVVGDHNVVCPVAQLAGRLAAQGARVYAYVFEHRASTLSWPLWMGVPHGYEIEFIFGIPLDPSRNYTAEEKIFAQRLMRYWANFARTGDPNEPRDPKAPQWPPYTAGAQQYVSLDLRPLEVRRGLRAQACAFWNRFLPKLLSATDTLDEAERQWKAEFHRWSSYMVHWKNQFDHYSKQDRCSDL
- Method Summary: Acetylcholinesterase (AChE) small molecule antagonists: enzyme-based qHTS assay with human liver microsomes (AID 1347399); note: nearly all actives have a fitted effect of over 60% in size
- Experimental Parameters: qHTS inhibition; series mostly up to 115 µM
Active and inactive are the calls of the source. Calls follow the shape of the full dose curve.
Labels: class 1 for active, class 0 for inactive

| Compound | Class Label |
| --- | --- |
| C=COCCCl | class 0 |
| CC1CCC(C(C)C)C(OC(=O)c2ccccc2N)C1 (stereo unspecified) | class 0 |
| CC(=[OH+])/C=C(/C)[O-].CC(=[OH+])/C=C(\C)[O-].CC(=[OH+])/C=C(\C)[O-].[Fe] | class 0 |
| C[C@@H]1CC[C@@]2(OC1)O[C@H]1[C@@H](O)[C@H]3[C@@H]4CC[C@H]5C[C@@H](O[C@@H]6O[C@H](CO)[C@H](O[C@@H]7O[C@H](CO)[C@@H](O)[C@H](O[C@@H]8OC[C@@H](O)[C@H](O)[C@H]8O)[C@H]7O[C@@H]7O[C@H](CO)[C@@H](O)[C@H](O[C@@H]8O[C@H](CO)[C@@H](O)[C@H](O)[C@H]8O)[C@H]7O)[C@H](O)[C@H]6O)[C@H](O)C[C@]5(C)[C@H]4CC[C@]3(C)[C@H]1[C@@H]2C | class 0 |
| C=CC(=O)N(C)C | class 0 |
| Clc1ccc(CO/N=C(\Cn2ccnc2)c2ccc(Cl)cc2Cl)c(Cl)c1 | class 0 |
| CCC(C)(C)C(=O)OC1=C(c2ccc(Cl)cc2Cl)C(=O)OC12CCCCC2 | class 0 |
| CCCCCCCCCCCCBr | class 0 |
| C=CCC1=C(C)C(OC(=O)C2C(C=C(C)C)C2(C)C)CC1=O (stereo unspecified) | class 0 |
| CCN | class 0 |
| CC(c1ccc(O)cc1)c1ccc(O)cc1 | class 0 |
| Nc1ccc(Cc2ccc(N)c(Cl)c2)cc1Cl | class 0 |
| CCOP(=S)(OCC)SCS(=O)(=O)CC | class 1 |
| COc1cccc2c1C(=O)c1c(O)c3c(c(O)c1C2=O)C[C@@](O)(C(=O)CO)CC3OC1CC(N2CCOC(OC)C2)C(O)C(C)O1 (stereo partly specified) | class 0 |
| CC(C)[C@H](C(=O)O[C@H](C#N)c1cccc(Oc2ccccc2)c1)c1ccc(Cl)cc1 | class 0 |
| c1cc[c]([Sb]([c]2ccccc2)[c]2ccccc2)cc1 | class 0 |
| CC(C)CBr | class 0 |
| CN(C)CCc1c[nH]c2ccc(O)cc12 | class 0 |
| Cc1cc(C)cc(OP(=O)(Oc2cc(C)cc(C)c2)Oc2cc(C)cc(C)c2)c1 | class 0 |
| N#Cc1ccccc1Cl | class 0 |
| Oc1ccc2ccc3cccc4ccc1c2c34 | class 0 |

---

- Tested Target: Nuclear receptor subfamily 1 group I member 3 (Homo sapiens) (UniProt Q14994)
- Sequence (Q14994 whole entry, looked up): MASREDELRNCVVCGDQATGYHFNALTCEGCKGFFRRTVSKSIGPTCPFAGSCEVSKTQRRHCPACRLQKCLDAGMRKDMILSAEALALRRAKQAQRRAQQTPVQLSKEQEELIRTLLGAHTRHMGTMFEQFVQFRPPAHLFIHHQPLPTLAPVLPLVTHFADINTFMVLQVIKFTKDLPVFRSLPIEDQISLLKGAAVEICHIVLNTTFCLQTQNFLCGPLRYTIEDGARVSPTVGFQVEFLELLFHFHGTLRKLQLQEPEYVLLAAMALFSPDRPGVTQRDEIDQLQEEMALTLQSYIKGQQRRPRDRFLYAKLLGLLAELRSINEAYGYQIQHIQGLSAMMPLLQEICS
- Method Summary: qHTS assay to identify small molecule agonists of the constitutive androstane receptor (CAR) signaling pathway (AID 1224839); note: nearly all actives have a fitted effect of over 15% in size;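 for activation: HepG2 cells stably carrying human CAR and a CYP2B6 luciferase reporter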
- Experimental Parameters: HepG2 hCAR CYP2B6-luciferase, agonist mode, 24 h; series mostly up to 92.4 µM
Records with an inconclusive call do not appear. The source made the active and inactive calls. Calls follow the shape of the dose curve; as a rule, active = well fitted activation curve with a large enough effect in the repeat runs; inconclusive = weak or mixed curves; inactive = no such curve, though single readings can be large or run the other way.
Outcome codes: active, inactive

| Mol | Tested Target | Class Label |
| --- | --- | --- |
| Oc1ccccc1Br | Nuclear receptor subfamily 1 group I member 3 (Homo sapiens) (UniProt Q14994) | inactive |
| FC(F)(F)c1cccc(C2=CCN(CCc3ccc4ccccc4c3)CC2)c1 | Nuclear receptor subfamily 1 group I member 3 (Homo sapiens) (UniProt Q14994) | inactive |
| c1ccc2c(c1)[nH]c1cnccc12 | Nuclear receptor subfamily 1 group I member 3 (Homo sapiens) (UniProt Q14994) | inactive |
| CC[C@H]1C[C@@H]2C[C@H]3c4[nH]c5ccc(OC)cc5c4CCN(C2)[C@@H]13 | Nuclear receptor subfamily 1 group I member 3 (Homo sapiens) (UniProt Q14994) | inactive |
| Nc1c(Oc2ccccc2)cc(O)c2c1C(=O)c1ccccc1C2=O | Nuclear receptor subfamily 1 group I member 3 (Homo sapiens) (UniProt Q14994) | active |
| CC(C)(C)c1ccc(CSc2cnn(C(C)(C)C)c(=O)c2Cl)cc1 | Nuclear receptor subfamily 1 group I member 3 (Homo sapiens) (UniProt Q14994) | inactive |

---

- Method Summary: qHTS assay to identify small molecule agonists of the endoplasmic reticulum stress response signaling pathway - cell viability counter screen (AID 1159517); note: nearly all actives have a fitted effect of over 50% in size
- Experimental Parameters: ESRE-bla HeLa viability, CellTiter-Glo luminescence, 5 h; series mostly up to 61 µM
Records with an inconclusive call do not appear. Activity calls are given as the source filed them. Calls follow the shape of the full dose curve.
Labels: 1 (yes) for active, 0 (no) for inactive

| Compound | Class Label |
| --- | --- |
| FC(Cl)(Cl)Cl | 0 (no) |
| CCCCCCCCCCCCBr | 0 (no) |
| N#CCCSCCC#N | 0 (no) |
| CSCCCN=C=S | 1 (yes) |
| O=C(O)COc1nc(Cl)c(Cl)cc1Cl | 0 (no) |
| Clc1ccc(CO/N=C(\Cn2ccnc2)c2ccc(Cl)cc2Cl)c(Cl)c1 | 1 (yes) |
| CCOc1cc(C(C)(C)C)ccc1C1COC(c2c(F)cccc2F)=N1 (centres undefined) | 0 (no) |
| CN(C)C1CSSSC1 | 0 (no) |
| O=C(CCl)C(Cl)Cl | 0 (no) |
| Nc1ccccc1C(=O)Oc1ccc2ccccc2c1 | 1 (yes) |
| S=C(SSC(=S)N1CCCCC1)N1CCCCC1 | 0 (no) |
| CC(C)(C)OO | 0 (no) |
| Nc1ccc(Cc2ccc(N)c(Cl)c2)cc1Cl | 0 (no) |
| C=CC(=O)OCC(COC(=O)C=C)(COC(=O)C=C)COC(=O)C=C | 1 (yes) |
| O=C(O)C1C2CCC(O2)C1C(=O)O (centres undefined) | 0 (no) |
| C[C@]12CC[C@H]3[C@@H](CCC4=CC(=O)CC[C@@]43C)[C@@H]1CC[C@@H]2O | 0 (no) |
| c1ccc(Nc2ccc3ccccc3c2)cc1 | 0 (no) |
| CC(C)(C)c1ccc(CSc2cnn(C(C)(C)C)c(=O)c2Cl)cc1 | 0 (no) |
| O=c1[nH]c2ccccc2n1CCCN1CCC(n2c(=O)[nH]c3cc(Cl)ccc32)CC1 | 0 (no) |
| [Hg+2].[I-].[I-] | 1 (yes) |
| C=CCC1=C(C)C(OC(=O)C2C(C=C(C)C)C2(C)C)CC1=O (centres undefined) | 1 (yes) |
| C1CCC2CCCCC2C1 (centres undefined) | 0 (no) |
| CN(C)CCc1c[nH]c2ccc(O)cc12 | 0 (no) |
| ClC(Cl)=C(c1ccc(Cl)cc1)c1ccc(Cl)cc1 | 1 (yes) |
| ClC1=C(Cl)[C@]2(Cl)[C@@H]3[C@@H]4C[C@@H]([C@H]5O[C@@H]45)[C@@H]3[C@@]1(Cl)C2(Cl)Cl | 1 (yes) |
| CC(C)(C)c1cc([N+](=O)[O-])cc(C(C)(C)C)c1O | 0 (no) |
| BrC(Br)C(Br)(Br)Br | 0 (no) |
| CC(=O)[O-].[Tl+] | 0 (no) |
| CCCCOCN(C(=O)CCl)c1c(CC)cccc1CC | 0 (no) |
| CN(C)[C@@H]1C(=O)C(C(N)=O)=C(O)[C@@]2(O)C(=O)C3=C(O)c4c(O)ccc(Cl)c4[C@@](C)(O)[C@H]3C[C@@H]12 | 0 (no) |
| CC1(C)[C@H](C(=O)O[C@H](C#N)c2cccc(Oc3ccccc3)c2)[C@@H]1/C=C(\Cl)C(F)(F)F | 0 (no) |
| Clc1ccc(COC(Cn2ccnc2)c2ccc(Cl)cc2Cl)cc1 (centres undefined) | 1 (yes) |
| Nc1ccc(Sc2ccc(N)cc2)cc1 | 0 (no) |
| Nc1ccccc1C(=O)OC/C=C/c1ccccc1 | 0 (no) |
| CCCCCCCCCCCCCCC(Br)C(=O)O (centres undefined) | 1 (yes) |
| CN(C)CCc1c[nH]c2cccc(O)c12 | 0 (no) |
| CC(=O)C(Cl)(Cl)Cl | 0 (no) |
| ClC(Cl)=C(Cl)Cl | 0 (no) |
| COP(=S)(OC)Oc1cc(Cl)c(Br)cc1Cl | 0 (no) |
| Cc1cc(C)cc(OP(=O)(Oc2cc(C)cc(C)c2)Oc2cc(C)cc(C)c2)c1 | 0 (no) |
| BrCBr | 0 (no) |
| N#C/C=C/C#N | 0 (no) |
| CC[C@H]1C[C@@H]2C[C@H]3c4[nH]c5ccc(OC)cc5c4CCN(C2)[C@@H]13 | 0 (no) |
| CCCN(CCC)CCc1c[nH]c2ccccc12 | 0 (no) |
| O=S(=O)(c1ccc(Cl)cc1)c1ccc(Cl)cc1 | 0 (no) |
| C[C@@H]1CC[C@@]2(OC1)O[C@H]1[C@@H](O)[C@H]3[C@@H]4CC[C@H]5C[C@@H](O[C@@H]6O[C@H](CO)[C@H](O[C@@H]7O[C@H](CO)[C@@H](O)[C@H](O[C@@H]8OC[C@@H](O)[C@H](O)[C@H]8O)[C@H]7O[C@@H]7O[C@H](CO)[C@@H](O)[C@H](O[C@@H]8O[C@H](CO)[C@@H](O)[C@H](O)[C@H]8O)[C@H]7O)[C@H](O)[C@H]6O)[C@H](O)C[C@]5(C)[C@H]4CC[C@]3(C)[C@H]1[C@@H]2C | 1 (yes) |
| CC(C)OC(=S)S | 0 (no) |
| Cc1cc(C)c(C2=C(OC(=O)CC(C)(C)C)C3(CCCC3)OC2=O)c(C)c1 | 0 (no) |
| NNC(=O)c1ccccc1 | 0 (no) |
